src = PubChem BioAssay

Assay: inhibitors of E-selectin induction by TNFa, primary screen, imaging, HUVEC, immunofluorescence, MLSMR starter and 10KST1 sets (AID 487);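 further: 100% = median nuclei count of all wells on the same plate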
Settings: HUVEC TNFalpha-induced E-selectin immunofluorescence imaging, at 2 µM; measured here: cell number, toxicity
experimental readout: nuclei count (%)

INSERT INTO assay_data (compound, unit_annotation, observed_result) VALUES
  ('COc1ccc(CCn2c(=N)c(C(=O)NCc3ccco3)cc3c(=O)n4ccccc4nc32)cc1', '%', 108),
  ('Cc1ccc2[nH]c3c(N4CCN(Cc5ccccc5)CC4)ncnc3c2c1', '%', 148),
  ('c1cncc(Oc2cccc(Oc3cccnc3)c2)c1', '%', 133),
  ('COc1cc(NC2=CC(=O)CC(C)(C)C2)cc(OC)c1OC', '%', 141),
  ('Cc1[nH]nc2c1C(CCc1ccccc1)C(C#N)=C(N)O2 (configuration not stated)', '%', 115),
  ('N#C/C(=C\N1CCN(Cc2ccc3c(c2)OCO3)CC1)c1nc2ccccc2s1', '%', 170),
  ('COC(=O)c1n[nH]c2ccccc12', '%', 119),
  ('CN(C1CCS(=O)(=O)C1)S(=O)(=O)c1cccc2nsnc12 (configuration not stated)', '%', 135),
  ('CCC(=O)O[C@@H]1CC(=O)O[C@H](C)CC=CC=C[C@@H](O)[C@H](C)C[C@H](CC=O)[C@H](O[C@H]2O[C@H](C)[C@@H](O[C@H]3C[C@@](C)(O)[C@@H](OC(=O)CC)[C@H](C)O3)[C@H](N(C)C)[C@H]2O)[C@H]1OC', '%', 120),
  ('COC(=O)COn1c(SCC(=O)OC)nc2ccccc2c1=O', '%', 89.2),
  ('Cc1ccc(Cl)c(Nc2ccccc2C(=O)O)c1Cl', '%', 95.9),
  ('CC1(C)CC(=O)C(C=NCCN2CCN(C(=O)C34CC5CC(CC(C5)C3)C4)CC2)=C(O)C1', '%', 144),
  ('Cc1ccc(C2/C(=C(\O)c3cnn(-c4ccccc4)c3C)C(=O)C(=O)N2CCN(C)C)o1 (configuration not stated)', '%', 108),
  ('C=C(C)C1Cc2c(C)nn(-c3nc(C)cc(C)n3)c2C1 (configuration not stated)', '%', 121),
  ('CN1C(=S)SC(N(O)C(=O)Nc2ccccc2)C1(C)C (configuration not stated)', '%', 168),
  ('C=CCOn1c(=O)c(-c2cc3ccccc3o2)[n+]([O-])c2ccccc21', '%', 144),
  ('Cc1ccc(-c2ccc(/C=N/c3ncn[nH]3)o2)cc1Cl', '%', 119),
  ('COc1cccc(Cn2c(NCC(C)C)nc3c2c(=O)n(C)c(=O)n3C)c1', '%', 127),
  ('CCCN(CCC)S(=O)(=O)c1ccc(C(=O)O)cc1', '%', 118),
  ('Clc1ccc2[nH]c3c(NCCN4CCOCC4)ncnc3c2c1', '%', 154),
  ('N[C@@H](Cc1ccc(O)c(I)c1)C(=O)O', '%', 110),
  ('CCOC(=O)c1[nH]c2cc(OC)c(OC)cc2c1NC(=O)C(C)N1CCN(Cc2ccccc2)CC1 (configuration not stated)', '%', 140),
  ('COc1cc(-c2cc(C(F)(F)F)n3ncc(C(=O)O)c3n2)cc(OC)c1OC', '%', 123),
  ('Cc1ccc(/C(O)=C2/C(=O)C(=O)N(Cc3ccco3)C2c2cccs2)cc1 (configuration not stated)', '%', 136),
  ('COc1cc(NS(=O)(=O)c2ccc(N)cc2)nc(OC)n1', '%', 96.6),
  ('Cc1ccc(S(=O)(=O)NCC(=O)OCN2C(=O)c3ccccc3C2=O)cc1', '%', 93.4),
  ('CC(C)Oc1ccc(/C(O)=C2/C(=O)C(=O)N(CCN(C)C)C2c2ccco2)cc1 (configuration not stated)', '%', 112),
  ('CN(C)C(CN1C(=O)C2CC=CCC2C1=O)c1cn(C)c2ccccc12 (configuration not stated)', '%', 124),
  ('Cc1ccc(-n2c(=O)c3c4c(sc3n3c(C)nnc23)COC(C(C)C)C4)cc1 (configuration not stated)', '%', 122),
  ('COc1ccc(C2C=C(c3ccc(Cl)cc3)Nc3nc(NC(C)=O)nn32)cc1 (configuration not stated)', '%', 159),
  ('CCCc1cc(-c2nc(N)ncc2-c2ccc3c(c2)OCCCO3)c(O)cc1OC', '%', 122),
  ('C[C@]12C[C@H](O)[C@H]3[C@@H](CCC4=CC(=O)CC[C@@]43C)[C@@H]1CC[C@@H]2C(=O)CO', '%', 102);
